These entries and their values trace back to patent US20200247894A1.

# Assayed target: T1, Human IL2Rγ extracellular domain expressed with a C-terminal myc-myc-hexahistidine tag (human)
# T1 construct: also called hIL-2Rg-MMH; hIL-2RG-MMH
# T1 chain: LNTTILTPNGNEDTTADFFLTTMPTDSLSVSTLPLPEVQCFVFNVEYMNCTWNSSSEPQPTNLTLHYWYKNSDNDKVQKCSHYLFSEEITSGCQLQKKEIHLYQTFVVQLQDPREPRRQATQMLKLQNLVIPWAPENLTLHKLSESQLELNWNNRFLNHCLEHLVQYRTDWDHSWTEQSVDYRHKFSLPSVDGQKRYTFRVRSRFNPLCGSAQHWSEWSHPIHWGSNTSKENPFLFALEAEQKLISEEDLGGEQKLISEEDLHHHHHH
# Experimental protocol: SPR, captured mAb, 37C, dissociation pH 6.0
# Method: The dissociation rate constant (kd) for binding of IL-2Rγ reagents to purified anti-IL2Rγ monoclonal antibodies was determined using a real-time surface plasmon resonance based Biacore 4000 biosensor platform. […] Dissociation rate constants (kd) in two running buffers were determined by fitting the real-time binding sensorgrams to a 1:1 binding model using Scrubber 2.0c curve-fitting software. […]

>  <Binder>
H4H12863P (antibody, human IgG4 S228P, kappa, V domains shown, anti-IL2Rgamma mAb expressed with human IgG4 Fc) VH: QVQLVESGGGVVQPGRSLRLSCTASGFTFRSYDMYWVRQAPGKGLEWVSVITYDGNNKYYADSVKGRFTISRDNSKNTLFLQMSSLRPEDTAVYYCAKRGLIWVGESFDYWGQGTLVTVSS VL: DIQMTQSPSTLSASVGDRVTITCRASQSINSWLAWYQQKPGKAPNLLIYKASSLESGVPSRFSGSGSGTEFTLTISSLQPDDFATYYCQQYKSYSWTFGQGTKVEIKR

>  <koff (s⁻¹)>
0.00226

$$$$
>  <Binder>
H4H12899P (antibody, human IgG4 S228P, kappa, V domains shown, anti-IL2Rgamma mAb expressed with human IgG4 Fc) VH: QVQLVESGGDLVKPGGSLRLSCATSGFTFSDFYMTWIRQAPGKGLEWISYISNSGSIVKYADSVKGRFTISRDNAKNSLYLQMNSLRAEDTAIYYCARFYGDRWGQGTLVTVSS VL: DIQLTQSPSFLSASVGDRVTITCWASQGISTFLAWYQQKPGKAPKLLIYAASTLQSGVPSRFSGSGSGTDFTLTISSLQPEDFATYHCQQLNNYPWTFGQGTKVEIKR

>  <koff (s⁻¹)>
0.00219

$$$$
>  <Binder>
H4H12874P (antibody, human IgG4 S228P, kappa, V domains shown, anti-IL2Rgamma mAb expressed with human IgG4 Fc) VH: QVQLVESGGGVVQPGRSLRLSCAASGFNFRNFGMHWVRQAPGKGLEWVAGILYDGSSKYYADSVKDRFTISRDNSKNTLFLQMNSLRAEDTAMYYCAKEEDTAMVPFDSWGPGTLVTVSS VL: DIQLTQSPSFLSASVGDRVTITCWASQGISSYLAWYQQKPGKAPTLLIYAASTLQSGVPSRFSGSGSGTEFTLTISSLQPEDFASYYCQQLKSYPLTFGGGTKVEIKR

>  <koff (s⁻¹)>
0.00261

$$$$
